Target: ACE2 (human, UniProt Q9BYF1 18-740)
Sequence (Q9BYF1 18-740 limits assumed): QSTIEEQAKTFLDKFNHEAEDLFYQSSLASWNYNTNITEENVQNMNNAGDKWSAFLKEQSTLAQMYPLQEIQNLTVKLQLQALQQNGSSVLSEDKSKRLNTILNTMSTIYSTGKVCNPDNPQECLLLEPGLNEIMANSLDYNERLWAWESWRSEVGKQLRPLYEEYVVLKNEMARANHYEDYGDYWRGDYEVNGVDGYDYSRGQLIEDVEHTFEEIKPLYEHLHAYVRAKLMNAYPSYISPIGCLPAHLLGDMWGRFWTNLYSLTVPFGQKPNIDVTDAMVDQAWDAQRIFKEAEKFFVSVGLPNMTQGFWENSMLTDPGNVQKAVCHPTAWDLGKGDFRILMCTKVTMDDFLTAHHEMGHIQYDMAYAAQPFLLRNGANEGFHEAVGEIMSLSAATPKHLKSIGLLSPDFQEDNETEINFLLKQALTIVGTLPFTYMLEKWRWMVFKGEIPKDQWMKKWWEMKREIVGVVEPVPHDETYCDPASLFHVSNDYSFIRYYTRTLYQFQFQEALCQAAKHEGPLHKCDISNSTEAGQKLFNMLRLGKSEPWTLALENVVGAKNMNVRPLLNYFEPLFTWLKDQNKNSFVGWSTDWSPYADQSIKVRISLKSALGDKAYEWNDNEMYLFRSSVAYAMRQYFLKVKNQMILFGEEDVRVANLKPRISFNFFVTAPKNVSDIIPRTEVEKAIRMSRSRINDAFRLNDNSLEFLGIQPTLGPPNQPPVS
Would you mind telling me the reported log10 of koff of each entry?
All values: base-10 log of koff in s⁻¹.

Worked cases, log10 of koff given:
{"binder": "ACE2 variant antibody 4-64 (VHH) VHH: EVQLVESGGGLVQPGGSLRLSCAASGRTFGDYIMGWFRQAPGKERESVAAINWSAGYTAYADSVKGRFTISADNSKNTAYLQMNSLKPEDTAVYYCATASPNTGWHFDHWGQGTLVTVSS", "experimental_result": -3.15}
{"binder": "ACE2 variant antibody 4-57 (VHH) VHH: EVQLVESGGGLVQPGGSLRLSCAASGLTFRNYAMGWFRQAPGKEREFVAAIGSGGYTDYADSVKGRFTISADNSKNTAYLQMNSLKPEDTAVYYCAVKPGWVARDPSQYNWGQGTLVTVSS", "experimental_result": -2.62}
{"binder": "ACE2 variant antibody 4-82 (VHH) VHH: EVQLVESGGGLVQPGGSLRLSCAASGRTFGDYAMGWFRQAPGKEREFVAAINWSGGYTRYADSVKGRFTISADNSKNTAYLQMNSLKPEDTAVYYCATDPPLFWGQGTLVTVSS", "experimental_result": -2.48}
{"binder": "ACE2 variant antibody 4-61 (VHH) VHH: EVQLVESGGGLVQPGGSLRLSCAASGRTFGDYIMGWFRQAPGKEREIVAAINWSADYTPYADSVKGRFTISADNSKNTAYLQMNSLKPEDTAVYYCATAPPNTGWHFDHWGQGTLVTVSS", "experimental_result": -2.54}

# batch size: 4; output log10 of koff per entry
1. ACE2 variant antibody 4-63 (VHH) VHH: EVQLVESGGGLVQPGGSLRLSCAASGRTFSDYTMGWFRQAPGKEREFVAAINWSGGYTYYADSVKGRFTISADNSKNTAYLQMNSLKPEDTAVYYCATDPPLFWGQGTLVTVSS
2. ACE2 variant antibody 4-56 (VHH) VHH: EVQLVESGGGLVQPGGSLRLSCAASGFSLDYYGMGWFRQAPGKERESVAAISWNGDFTAYADSVKGRFTISADNSKNTAYLQMNSLKPEDTAVYYCAKRANPTGAYFDYWGQGTLVTVSS
3. ACE2 variant antibody 4-39 (VHH) VHH: EVQLVESGGGLVQPGGSLRLSCAASGRTFSNAAMGWFRQAPGKEREFVARILWTGASRNYADSVKGRFTISADNSKNTAYLQMNSLKPEDTAVYYCATTENPNPRWGQGTLVTVSS
4. ACE2 variant antibody 3-12 (antibody, V domains shown) VH: EVQLLESGGGLVQPGGSLRLSCAASGFTFRSHAMNWVRQAPGKGLEWVSAISGSGGSTNYADSVKGRFTISRDNSKNTLYLQMNSLRAEDTAVYYCARGLKFLEWLPSAFDIWGQGTLVTVSS VL: DIQMTQSPSSLSASVGDRVTITCRTSQSINTYLNWYQQKPGKAPKLLIYGASNVQSGVPSRFSGSGSGTDFTLTISSLQPEDFATYYCQQSYRIPRTFGQGTKVEIK

Ans.
-2.98
-2.63
-1.86
-2.19
